target: Human ACC2 (amino acids 1685-2458) (Homo sapiens); construct: Human ACC2 (amino acids 1685-2458); 6His (N, cleaved yes); FLAG (N, cleaved yes); TEV cleavage site (N, cleaved yes); assay: ThermoFluor measurement of compound binding to ACC2 CT domain; settings: carboxyterminus (CT) domain, pH 7.0, read-out: ACC2 TF Kd
Sequence (O00763 1685-2458): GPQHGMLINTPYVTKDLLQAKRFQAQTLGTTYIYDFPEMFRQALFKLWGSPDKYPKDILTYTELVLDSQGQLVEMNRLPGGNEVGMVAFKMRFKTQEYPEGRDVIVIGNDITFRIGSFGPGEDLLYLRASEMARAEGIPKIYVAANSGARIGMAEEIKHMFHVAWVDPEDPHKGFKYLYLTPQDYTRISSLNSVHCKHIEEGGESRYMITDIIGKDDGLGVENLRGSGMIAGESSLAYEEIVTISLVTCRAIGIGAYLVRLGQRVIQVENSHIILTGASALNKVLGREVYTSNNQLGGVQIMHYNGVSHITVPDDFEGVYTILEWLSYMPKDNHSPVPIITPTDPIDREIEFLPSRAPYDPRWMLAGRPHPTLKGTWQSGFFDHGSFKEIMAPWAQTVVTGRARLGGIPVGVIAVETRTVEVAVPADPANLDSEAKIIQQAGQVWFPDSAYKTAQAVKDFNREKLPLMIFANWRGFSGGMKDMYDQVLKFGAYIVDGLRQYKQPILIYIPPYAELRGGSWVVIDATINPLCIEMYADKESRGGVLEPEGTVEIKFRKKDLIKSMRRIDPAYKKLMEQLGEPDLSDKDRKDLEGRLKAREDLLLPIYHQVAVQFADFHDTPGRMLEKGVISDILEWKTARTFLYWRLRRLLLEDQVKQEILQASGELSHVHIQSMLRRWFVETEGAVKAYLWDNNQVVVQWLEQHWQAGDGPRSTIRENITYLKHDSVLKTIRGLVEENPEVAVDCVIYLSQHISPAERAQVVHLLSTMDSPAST
test_readout: pKd
Remember the convention: pKd equals -log10 of concentration in molar.

[ask] Please report the measured pKd for Cc1ccc2nc(-c3ccncc3)cc(C(=O)N3CCN(Cc4ccc5c(c4)OCCO5)CC3)c2c1
[reply] 6.40

====

target: Human ACC1 (amino acids 1603-2383) (Homo sapiens); construct: Human ACC1 (amino acids 1603-2383); 6His (N); FLAG (N); TEV cleavage site (N); assay: ThermoFluor measurement of compound binding to ACC1 CT domain; conditions: carboxyterminus (CT) domain, pH 7.0, read-out: ACC1 TF Kd
test_readout: Kd (nM)
Write down the numeric answer in nM and omit the unit.

[ask] Please report the measured Kd for Cc1ccc2nc(-c3ccncc3)cc(C(=O)N3CCN(Cc4ccc5c(c4)OCCO5)CC3)c2c1
[reply] 970
